# tested on: 3',5'-cyclic-AMP phosphodiesterase 4D (Homo sapiens, UniProt Q08499)
# Sequence (Q08499 whole entry): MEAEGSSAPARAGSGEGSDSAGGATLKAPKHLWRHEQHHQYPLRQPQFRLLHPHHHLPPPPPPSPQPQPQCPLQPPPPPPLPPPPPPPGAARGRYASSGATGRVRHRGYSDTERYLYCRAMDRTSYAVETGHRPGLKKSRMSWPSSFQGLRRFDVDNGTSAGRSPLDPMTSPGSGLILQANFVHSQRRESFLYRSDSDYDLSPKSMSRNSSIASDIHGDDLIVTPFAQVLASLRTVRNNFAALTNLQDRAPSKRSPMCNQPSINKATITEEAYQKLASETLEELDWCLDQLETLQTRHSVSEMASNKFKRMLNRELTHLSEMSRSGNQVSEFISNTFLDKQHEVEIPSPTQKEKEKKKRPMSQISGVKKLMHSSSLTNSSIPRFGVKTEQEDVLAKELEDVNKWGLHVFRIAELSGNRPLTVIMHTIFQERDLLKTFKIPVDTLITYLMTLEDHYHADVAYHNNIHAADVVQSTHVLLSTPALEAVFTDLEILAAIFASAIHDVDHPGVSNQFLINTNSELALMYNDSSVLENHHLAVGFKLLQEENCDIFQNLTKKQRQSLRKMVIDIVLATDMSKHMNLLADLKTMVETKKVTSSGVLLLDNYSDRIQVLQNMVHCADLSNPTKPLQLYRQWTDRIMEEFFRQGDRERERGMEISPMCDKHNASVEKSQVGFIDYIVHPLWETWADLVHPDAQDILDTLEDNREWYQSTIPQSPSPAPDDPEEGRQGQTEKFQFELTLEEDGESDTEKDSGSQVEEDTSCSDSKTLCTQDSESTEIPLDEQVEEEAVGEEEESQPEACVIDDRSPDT
# assay name: Inhibition of full-length PDE4D2 (unknown origin) using FAM-cAMP as substrate at 1 uM preincubated with compound for 15 mins followed by substrate addition and measured after 30 mins by fluorescence polarization based IMAP assay relative to control
# test context: time 45.0 min
Listed next: entries and their corresponding inhibition.

{"structure smiles": "O=C(Nc1nccs1)c1coc(-c2ccc(OC(F)F)c(OCC3CC3)c2)n1", "inhibition, %": 57}
{"structure smiles": "O=C(O)c1c[nH]c(-c2ccc(OC(F)F)c(OCC3CC3)c2)n1", "inhibition, %": 35.7}
{"structure smiles": "O=C(NCc1ccccc1)c1c[nH]c(-c2ccc(OC(F)F)c(OCC3CC3)c2)n1", "inhibition, %": 91.1}
{"structure smiles": "O=C(NCc1cc(F)ccc1F)c1c[nH]c(-c2ccc(OC(F)F)c(OC(F)F)c2)n1", "inhibition, %": 93.6}
{"structure smiles": "O=C(Nc1ccc2ncsc2c1)c1coc(-c2ccc(OC(F)F)c(OCC3CC3)c2)n1", "inhibition, %": 39.6}
{"structure smiles": "O=C(Nc1ccccc1)c1c[nH]c(-c2ccc(OC(F)F)c(OCC3CC3)c2)n1", "inhibition, %": 64.9}
{"structure smiles": "O=C(NCc1ccccc1)c1coc(-c2ccc(OC(F)F)c(OCC3CC3)c2)n1", "inhibition, %": 89.8}
{"structure smiles": "Cc1ccc(-c2nc(C(=O)Nc3ccncc3)c[nH]2)cc1C", "inhibition, %": 3.4}
{"structure smiles": "O=C(Nc1nccs1)c1c[nH]c(-c2ccc(OC(F)F)c(OCC3CC3)c2)n1", "inhibition, %": 74.3}
{"structure smiles": "O=C(NCC1CCOCC1)c1c[nH]c(-c2ccc(OC(F)F)c(OCC3CC3)c2)n1", "inhibition, %": 93.9}
{"structure smiles": "O=C(Nc1ccncc1)c1c[nH]c(-c2ccc(OC(F)F)c(OCC3CC3)c2)n1", "inhibition, %": 99.3}
{"structure smiles": "COc1ccc(CNC(=O)c2c[nH]c(-c3ccc(OC(F)F)c(OCC4CC4)c3)n2)cn1", "inhibition, %": 94.1}
{"structure smiles": "COc1cc(-c2nc(C(=O)Nc3ccc4ncsc4c3)c[nH]2)cc(OC)c1OC(F)F", "inhibition, %": 8.4}
{"structure smiles": "Cn1ccc(NC(=O)c2c[nH]c(-c3ccc(OC(F)F)c(OCC4CC4)c3)n2)n1", "inhibition, %": 58.8}
{"structure smiles": "O=C(Nc1ccncc1)c1coc(-c2ccc(OC(F)F)c(OCC3CC3)c2)n1", "inhibition, %": 59}
{"structure smiles": "O=C(NCc1c(F)cc(F)cc1F)c1coc(-c2ccc(OC(F)F)c(OCC3CC3)c2)n1", "inhibition, %": 87.8}
{"structure smiles": "O=C(NCc1ccc(F)cc1F)c1c[nH]c(-c2ccc(OC(F)F)c(OC(F)F)c2)n1", "inhibition, %": 88.4}
{"structure smiles": "O=C(NCc1ncccn1)c1c[nH]c(-c2cc(OCC3CC3)c(OC(F)F)c(OCC3CC3)c2)n1", "inhibition, %": 1.8}
{"structure smiles": "COc1cc(-c2nc(C(=O)NCc3ncccn3)c[nH]2)cc(OC)c1OC(F)F", "inhibition, %": 0.8}
{"structure smiles": "O=C(NCc1ncccn1)c1c[nH]c(-c2ccc(OC(F)F)c(OC(F)F)c2)n1", "inhibition, %": 96.3}
{"structure smiles": "O=C(NCc1ccc2ccccc2c1)c1c[nH]c(-c2ccc(OC(F)F)c(OCC3CC3)c2)n1", "inhibition, %": 82.3}
